- run.parameters: 328.15 K; 101.33 kPa; Liquid; Concentric cylinders viscometry
readout.type: viscosity (mPa·s)
Respond numerically; units are mPa·s and should not be typed.

Sample answers from the record:
compound | viscosity (mPa·s)
CCCCC/C=C\C/C=C\CCCCCCCC(=O)OC [methyl (Z,Z)-9,12-octadecadienate] | 2.461
CCCCCCCCCCCC(=O)OC [methyl dodecanoate] | 1.595
CCCCCCCCCCCCCCCC(=O)OC [methyl hexadecanoate] | 2.754

Next compound, viscosity to be filled in.
[Q] Need viscosity, item CCCCCCCCCCCCCCCC(=O)OCC [ethyl hexadecanoate]
[A] 2.897

###

- run.parameters: 348.15 K; 101.33 kPa; Liquid; Concentric cylinders viscometry
Reported viscosity by item:
Respond numerically; units are mPa·s and should not be typed.

Sample answers from the record:
compound | viscosity / mPa·s
CCCCCCCCCCCCCC(=O)OCC [ethyl tetradecanoate] | 1.614
CCCCCCCCCCCCCC(=O)OC [methyl tetradecanoate] | 1.532
CCCCCCCCCCCCCCCCCC(=O)OCC [ethyl octadecanoate] | 2.515
CCCCCCCCCCCC(=O)OC [methyl dodecanoate] | 1.178
CCCCCCCCCC(=O)OC [methyl decanoate] | 0.8886
CCCCCCCCCCCCCCCC(=O)OCC [ethyl hexadecanoate] | 2.039

[Q] Need viscosity, item CCCCCCCCCCCC(=O)OCC [ethyl dodecanoate]
[A] 1.254

[Q] Note, next up: CCCCCCCC/C=C\CCCCCCCC(=O)OCC [ethyl (Z)-9-octadeceneoate]
[A] 2.124

[Q] Note, next up: CCCCCCCCCCCCCCCC(=O)OC [methyl hexadecanoate]
[A] 1.942

[Q] Note, next up: CCCCCCCCCC(=O)OCC [ethyl decanoate]
[A] 0.9516

[Q] Note, next up: CCCCCCCC/C=C\CCCCCCCC(=O)OC [methyl cis-9-octadecenoate]
[A] 2.05

[Q] Note, next up: CCCCCCCC(=O)OC [methyl octanoate]
[A] 0.6713

[Q] Note, next up: CCCCC/C=C\C/C=C\CCCCCCCC(=O)OC [methyl (Z,Z)-9,12-octadecadienate]
[A] 1.804

[Q] Note, next up: CCCCCCCCCCCCCCCCCC(=O)OC [methyl octadecanoate]
[A] 2.448

###

Reported mass density by item:
- run.parameters: 353.15 K; 101.33 kPa; Liquid; Vibrating tube method
Respond numerically; units are kg/m3 and should not be typed.

Sample answers from the record:
molecule | readout.type | unit.symbol | test.value
CCCCCCCCCCCCCCCCCC(=O)OCC [ethyl octadecanoate] | mass density | kg/m3 | 815.9
CCCCCCCCCC(=O)OC [methyl decanoate] | mass density | kg/m3 | 822.9
CCCCCCCCCCCCCCCC(=O)OCC [ethyl hexadecanoate] | mass density | kg/m3 | 815.9

[Q] Need mass density, item CCCCCCCCCCCCCC(=O)OC [methyl tetradecanoate]
[A] 821.8

[Q] Note, next up: CCCCCCCCCC(=O)OCC [ethyl decanoate]
[A] 815.1

[Q] Note, next up: CCCCCCCC/C=C\CCCCCCCC(=O)OC [methyl cis-9-octadecenoate]
[A] 830.7

[Q] Note, next up: CCCCCCCCCCCC(=O)OC [methyl dodecanoate]
[A] 822.3

[Q] Note, next up: CCCCCCCCCCCCCCCC(=O)OC [methyl hexadecanoate]
[A] 821

[Q] Note, next up: CCCCCCCC/C=C\CCCCCCCC(=O)OCC [ethyl (Z)-9-octadeceneoate]
[A] 825.9

[Q] Note, next up: CCCCCCCCCCCCCCCCCC(=O)OC [methyl octadecanoate]
[A] 820.9

[Q] Note, next up: CCCCC/C=C\C/C=C\CCCCCCCC(=O)OC [methyl (Z,Z)-9,12-octadecadienate]
[A] 842.5

[Q] Note, next up: CCCCCCCCCCCC(=O)OCC [ethyl dodecanoate]
[A] 815.4

[Q] Note, next up: CCCCCCCCCCCCCC(=O)OCC [ethyl tetradecanoate]
[A] 815.6

[Q] Note, next up: CCCCCCCC(=O)OC [methyl octanoate]
[A] 824

Entry source: the NIST ThermoML archive (doi:10.1021/je100042c)
